Measurement Notes: GFP drop in mixed WT/humanized-ribosome E. coli culture – GFP/RFP fluorescence, OD600, single point, bacterial rRNA inhibitor project, primary screen (AID 720706)
Experimental Setup: E. coli WT GFP vs humanized-ribosome RFP mutants, 24 h; measured here: RFP humanized mutant strains, DMSO median 0, no signal -100, concentration not given here
Among all 350,000 compounds or so, about 5,500 (1.6%) were called active. Many of the other results were omitted from the sample, so actives are more common in it than they were.
Would you mind telling me the reported RFP signal change of each entry?
Write down the numeric answer in % and omit the unit.

If you can, please state the reported RFP signal change value of CN1C(=O)c2cc(NC(=O)c3ccccc3)ccc2OC[C@@H]2O[C@@H](CC(=O)NC3CCCC3)CC[C@H]21 . 0.386

If you can, please state the reported RFP signal change value of O=S1(=O)CC(N2CCN(Cc3ccccc3F)CC2)CN1Cc1cn(Cc2cccc(C(F)(F)F)c2)nn1 (stereo not drawn) . -2.53

If you can, please state the reported RFP signal change value of O=C(CCCN1CCc2[nH]c3ccc(F)cc3c2C1)c1ccc(F)cc1 . 3.29

If you can, please state the reported RFP signal change value of O=C(c1ccc(F)cc1)N1CC(=O)N2[C@H](CO)[C@H](c3ccc(-c4ccccc4F)cc3)[C@@H]2C1 . 3.17

If you can, please state the reported RFP signal change value of CCCC#Cc1ccc([C@@H]2[C@@H](CO)N3C(=O)CN(C(=O)Nc4ccc(F)cc4)C[C@@H]23)cc1 . 19.5

If you can, please state the reported RFP signal change value of COc1ccccc1CNC(=O)C[C@@H]1CC[C@@H]2[C@@H](COc3ccc(NC(=O)Nc4ccc(F)c(F)c4)cc3C(=O)N2C)O1 . -1.71

If you can, please state the reported RFP signal change value of CO[C@@H]1CN(C)C(=O)c2cc(NC(=O)NC3CCCCC3)ccc2OC[C@@H](C)N(C(C)=O)C[C@H]1C . -0.812

If you can, please state the reported RFP signal change value of CC1CCc2[nH]c3ccc(C(=O)N(C)CC(=O)Nc4cccc(F)c4)cc3c2C1 (stereo not drawn) . -1.58
